target: Vascular endothelial growth factor receptor 2 (Homo sapiens) (UniProt P35968)
Sequence (P35968 whole entry): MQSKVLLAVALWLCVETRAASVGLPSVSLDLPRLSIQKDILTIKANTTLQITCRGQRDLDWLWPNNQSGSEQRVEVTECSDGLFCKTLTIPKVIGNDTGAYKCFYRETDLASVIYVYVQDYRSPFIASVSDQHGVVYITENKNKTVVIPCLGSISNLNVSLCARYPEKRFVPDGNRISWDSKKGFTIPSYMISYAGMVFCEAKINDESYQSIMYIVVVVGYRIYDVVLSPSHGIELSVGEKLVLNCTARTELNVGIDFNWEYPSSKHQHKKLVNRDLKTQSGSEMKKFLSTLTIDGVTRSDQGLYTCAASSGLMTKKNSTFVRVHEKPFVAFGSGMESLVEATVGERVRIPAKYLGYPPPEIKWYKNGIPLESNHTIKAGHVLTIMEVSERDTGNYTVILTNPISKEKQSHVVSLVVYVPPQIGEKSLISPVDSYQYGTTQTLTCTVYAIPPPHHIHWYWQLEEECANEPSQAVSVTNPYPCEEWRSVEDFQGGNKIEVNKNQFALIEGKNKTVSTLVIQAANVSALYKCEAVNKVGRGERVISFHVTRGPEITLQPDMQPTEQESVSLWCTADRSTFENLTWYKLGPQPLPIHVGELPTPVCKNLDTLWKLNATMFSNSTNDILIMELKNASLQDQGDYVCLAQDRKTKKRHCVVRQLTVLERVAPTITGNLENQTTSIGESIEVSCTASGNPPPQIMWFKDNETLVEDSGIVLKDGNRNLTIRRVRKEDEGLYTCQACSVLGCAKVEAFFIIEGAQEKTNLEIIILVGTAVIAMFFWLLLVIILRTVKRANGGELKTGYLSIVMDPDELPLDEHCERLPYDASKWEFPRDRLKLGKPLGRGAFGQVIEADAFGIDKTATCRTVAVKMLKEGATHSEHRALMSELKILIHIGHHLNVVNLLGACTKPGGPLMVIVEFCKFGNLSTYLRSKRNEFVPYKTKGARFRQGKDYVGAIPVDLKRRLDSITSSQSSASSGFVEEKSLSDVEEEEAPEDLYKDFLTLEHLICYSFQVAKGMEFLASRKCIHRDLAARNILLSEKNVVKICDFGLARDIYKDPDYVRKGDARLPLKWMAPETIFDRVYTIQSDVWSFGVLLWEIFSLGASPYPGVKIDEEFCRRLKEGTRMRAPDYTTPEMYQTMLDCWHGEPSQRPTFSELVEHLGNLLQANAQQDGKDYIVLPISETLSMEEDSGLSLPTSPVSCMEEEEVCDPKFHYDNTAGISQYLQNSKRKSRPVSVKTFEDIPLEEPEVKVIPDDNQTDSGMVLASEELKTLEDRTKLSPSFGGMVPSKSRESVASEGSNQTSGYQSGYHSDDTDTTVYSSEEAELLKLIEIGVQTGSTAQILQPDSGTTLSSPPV
conditions: at 10 µM
Description: Inhibition of KDR at 10 uM incubated for 60 mins using poly(Glu,Tyr)4:1 substrate and 10 uM ATP by ELISA
Threshold check on inhibition: at or above 10% gives Fulfilled, strictly below gives Not fulfilled.

Use the examples below as a reference point.
COc1ccc(CNC(=O)c2nc(Br)c3cccnc3c2N[C@H]2CC[C@H](N)CC2)cc1 ... Not fulfilled
N[C@H]1CC[C@H](Nc2c(C(=O)NCc3ccc(Cl)cc3Cl)nc(Br)c3cccnc23)CC1 ... Fulfilled
N[C@H]1CC[C@H](Nc2c(C(=O)NCc3ccc(Cl)cc3)nc(Br)c3cccnc23)CC1 ... Fulfilled

For the next question, use this molecule.
Please check the record O=C(NCc1ccc(F)cc1)c1nc(Br)c2cccnc2c1N1CCNCC1 and state if its inhibition is at or above 10%.
Not fulfilled

====

# IC50 annotations
Tested on: SK-BR-3
assayDetails: Cytotoxicity against human SKBR3 cells incubated for 72 hrs by MTT assay
Assay type: functional, cell-based
conditions: SK-BR-3, 72 h
State just the number; it will be interpreted in µM.

Solved entries:
N[C@H]1CC[C@H](Nc2c(C(=O)NCc3ccc(Cl)cc3Cl)nc(Br)c3cccnc23)CC1 ... 6
N[C@H]1CC[C@H](Nc2c(C(=O)NCc3ccc(Cl)cc3)nc(Br)c3cccnc23)CC1 ... 2
N[C@H]1CC[C@H](Nc2c(C(=O)NCc3ccccc3)nc(Br)c3cccnc23)CC1 ... 8
N[C@H]1CC[C@H](Nc2c(C(=O)NCc3ccc(F)cc3)nc(Br)c3cccnc23)CC1 ... 2
COC(=O)CNc1c(C(=O)NCc2ccc(F)cc2)nc(Br)c2cccnc12 ... 1
N[C@H]1CC[C@H](Nc2c(C(=O)NCc3ccco3)nc(Br)c3cccnc23)CC1 ... 10
COc1cccc(CNC(=O)c2nc(Br)c3cccnc3c2N[C@H]2CC[C@H](N)CC2)c1 ... 6
CNCCCNc1c(C(=O)NCc2ccc(F)cc2)nc(Br)c2cccnc12 ... 1
C[C@H](NC(=O)c1nc(Br)c2cccnc2c1N[C@H]1CC[C@H](N)CC1)c1ccc(F)cc1 ... 9
N[C@H]1CC[C@H](Nc2c(C(=O)Nc3ccccc3)nc(Br)c3cccnc23)CC1 ... 2

Name the reported IC50 value associated with the compound O=C(NCc1ccc(F)cc1)c1nc(Br)c2cccnc2c1N1CCNCC1
6

Which measured IC50 value corresponds to N[C@H]1CC[C@H](Nc2c(C(=O)NCCc3ccccc3)nc(Br)c3cccnc23)CC1 ?
7

// IC50 lookup, key: N[C@H]1CC[C@H](Nc2c(C(=O)NCc3ccc(F)cc3)nc(N3CCCCS3(=O)=O)c3cccnc23)CC1
8.5

Suppose we examine the compound O=C(NCCCNc1c(C(=O)NCc2ccc(F)cc2)nc(Br)c2cccnc12)c1ccccc1 ; what IC50 value has been reported?
1

Report IC50 for O=C(NCc1ccc(F)cc1)c1nc(Br)c2cccnc2c1NC1CCNCC1 please.
1

====

target: Proto-oncogene tyrosine-protein kinase Src (Homo sapiens)
assayDetails: Inhibition of SRC at 10 uM incubated for 60 mins using poly(Glu,Tyr)4:1 substrate and 10 uM ATP by ELISA
Short version: inhibition at least 20% is y, less is n.

O=C(NCc1ccc(F)cc1)c1nc(N2CCCCS2(=O)=O)c2cccnc2c1O ... n
COc1ccc(CNC(=O)c2nc(Br)c3cccnc3c2N[C@H]2CC[C@H](N)CC2)cc1 ... y
N[C@H]1CC[C@H](Nc2c(C(=O)NCc3ccc(Cl)cc3Cl)nc(Br)c3cccnc23)CC1 ... y
N[C@H]1CC[C@H](Nc2c(C(=O)NCc3ccc(Cl)cc3)nc(Br)c3cccnc23)CC1 ... y
CC(C)(C)n1nc(-c2ccc(Cl)cc2)c2c(N)ncnc21 ... y
NCCCCCCNc1c(C(=O)NCc2ccc(F)cc2)nc(Br)c2cccnc12 ... n

Is inhibition for N[C@H]1CC[C@H](NC(=O)c2nc(Br)c3cccnc3c2NCc2ccc(F)cc2)CC1 at or above 20%?
n

Answer whether inhibition of O=CNCCCCCCNc1nc(C(=O)NCc2ccc(F)cc2)c(O)c2ncccc12 is greater than or equal to 20%.
y

Please indicate if the recorded inhibition for CN(C)CCCNc1c(C(=O)NCc2ccc(F)cc2)nc(Br)c2cccnc12 meets or exceeds 20%.
n

Entry O=C(NCc1ccc(F)cc1)c1nc(Br)c2cccnc2c1NC1CCNCC1 : is its inhibition no less than 20%?
n

====

System: HT-29
assayDetails: Cytotoxicity against human HT-29 cells incubated for 72 hrs by MTT assay
Format: functional, cell-based
conditions: HT-29, 72 h
propertyName: IC50

Previously resolved entries follow.
CC(C)(C)OC(=O)N1CCN(c2c(C(=O)NCc3ccc(F)cc3)nc(Br)c3cccnc23)CC1 ... > 10 µM
O=C(NCCCNc1c(C(=O)NCc2ccc(F)cc2)nc(Br)c2cccnc12)c1ccccc1 ... > 10 µM
N[C@H]1CC[C@H](Nc2c(C(=O)NCc3ccc(F)cc3)nc(Br)c3cccnc23)CC1 ... < 1 µM
CNCCCNc1c(C(=O)NCc2ccc(F)cc2)nc(Br)c2cccnc12 ... > 10 µM
O=C(NCc1ccc(F)cc1)c1nc(Br)c2cccnc2c1NC1CCNCC1 ... 4 µM
Nc1cccc(Nc2c(C(=O)NCc3ccc(F)cc3)nc(Br)c3cccnc23)c1 ... > 10 µM
O=C(NCc1ccc(F)cc1)c1nc(Br)c2cccnc2c1N1CCNCC1 ... 10 µM
Nc1ccc(Nc2c(C(=O)NCc3ccc(F)cc3)nc(Br)c3cccnc23)cc1 ... > 10 µM
NCCCCCCNc1c(C(=O)NCc2ccc(F)cc2)nc(Br)c2cccnc12 ... 5 µM
CN(C)CCCNc1c(C(=O)NCc2ccc(F)cc2)nc(Br)c2cccnc12 ... 6 µM

Bench note: what IC50 did NCCCNc1c(C(=O)NCc2ccc(F)cc2)ncc2cccnc12 show?
> 10 µM

Given the entry N[C@H]1CC[C@H](Nc2c(C(=O)NCc3ccc(F)cc3)nc(N3CCCCS3(=O)=O)c3cccnc23)CC1 , report its measured IC50.
> 10 µM

Requested read-out: IC50. Entry: CC(C)(C)OC(=O)N1CCC(Nc2c(C(=O)NCc3ccc(F)cc3)nc(Br)c3cccnc23)CC1
> 10 µM

Quick one: IC50 for COC(=O)CNc1c(C(=O)NCc2ccc(F)cc2)nc(Br)c2cccnc12 ?
> 10 µM

====

target: Human immunodeficiency virus type 1 integrase (Human immunodeficiency virus 1)
assayDetails: Inhibition of HIV1 integrase 3'-processing activity using [32P]-labeled linear oligonucleotide substrate
Each entry below carries its recorded IC50.

// solved cases for IC50 follow
CNc1c(C(=O)NCc2ccc(F)cc2)nc(Br)c2cccnc12 ... > 100 µM
O=C(NCc1ccc(F)cc1)c1nc(NCCO)c2cccnc2c1O ... 9.5 µM
O=C(NCc1ccc(F)cc1)c1nc(Br)c2cccnc2c1NCCCNc1c(C(=O)NCc2ccc(F)cc2)nc(Br)c2cccnc12 ... > 100 µM
C[C@H](Nc1c(C(=O)NCc2ccc(F)cc2)nc(Br)c2cccnc12)c1ccccc1 ... > 111 µM

# input for lookup
Requested field: IC50. Item: O=C(NCc1ccc(F)cc1)c1nc(Br)c2cccnc2c1NCCO
> 100 µM

====

target: Human immunodeficiency virus type 1 integrase (Human immunodeficiency virus 1, UniProt Q7ZJM1)
Sequence (Q7ZJM1 whole entry): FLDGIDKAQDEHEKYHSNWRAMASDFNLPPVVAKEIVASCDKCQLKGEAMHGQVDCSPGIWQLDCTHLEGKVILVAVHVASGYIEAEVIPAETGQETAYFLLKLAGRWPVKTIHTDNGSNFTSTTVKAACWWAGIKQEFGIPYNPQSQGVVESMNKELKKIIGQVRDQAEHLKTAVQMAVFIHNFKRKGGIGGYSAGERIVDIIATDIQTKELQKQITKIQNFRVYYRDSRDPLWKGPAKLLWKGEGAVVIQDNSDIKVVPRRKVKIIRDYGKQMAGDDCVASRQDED
assayDetails: Inhibition of HIV1 integrase 3'-processing activity using [32P]-labeled linear oligonucleotide substrate
propertyName: IC50 (µM)
Number only, in µM; omit the unit.

C[C@H](CO)Nc1nc(C(=O)NCc2ccc(F)cc2)c(O)c2ncccc12 ... 6.9

With those in mind, consider the next molecule.
Could you tell me which IC50 is on file for O=C(NCc1ccc(F)cc1)c1nc(NCCc2c[nH]c3ccccc23)c2cccnc2c1O ?
14

====

target: UniProtKB P35968
conditions: at 10 µM
propertyName: inhibition (%)
Value expressed in %; do not type the unit.

// worked examples, inhibition included
Nc1ccc(Nc2c(C(=O)NCc3ccc(F)cc3)nc(Br)c3cccnc23)cc1 ... 8
NCCCCCCNc1c(C(=O)NCc2ccc(F)cc2)nc(Br)c2cccnc12 ... 0
CN(C)CCCNc1c(C(=O)NCc2ccc(F)cc2)nc(Br)c2cccnc12 ... 0

Below: the item to evaluate.
# lookup: inhibition of O=C(NCc1ccc(F)cc1)c1nc(Br)c2cccnc2c1NC1CCNCC1
0

====

Tested on: MDA-MB-435
assayDetails: Cytotoxicity against human MDA-MB-435 cells incubated for 72 hrs by MTT assay
Format: functional, cell-based
conditions: MDA-MB-435, 72 h
propertyName: pIC50
Remember, pIC50 is on a log scale: it is -log10 of the molar concentration.

CC(C)(C)OC(=O)N1CCN(c2c(C(=O)NCc3ccc(F)cc3)nc(Br)c3cccnc23)CC1 ... 5.00

Need pIC50 of CS(=O)(=O)NCCCCCCN(c1nc(C(=O)NCc2ccc(F)cc2)c(O)c2ncccc12)S(C)(=O)=O , thanks.
4.70

What value of measured pIC50 is listed for N[C@H]1CC[C@H](Nc2c(C(=O)NCc3ccc(Oc4ccccc4)cc3)nc(Br)c3cccnc23)CC1 ?
5.40

Requested field: pIC50. Item: N[C@H]1CC[C@H](Nc2c(C(=O)NCc3cccs3)nc(Br)c3cccnc23)CC1
5.39

Record request: pIC50 value, item N[C@H]1CC[C@H](Nc2c(C(=O)NCc3ccc(Cl)cc3)nc(Br)c3cccnc23)CC1
6.00

For the compound shown here, O=C(NCc1ccc(F)cc1)c1nc(NCCc2c[nH]c3ccccc23)c2cccnc2c1O , give the reported pIC50.
4.89

Could you share which pIC50 value was measured for N[C@H]1CC[C@H](Nc2c(C(=O)NCc3ccccn3)nc(Br)c3cccnc23)CC1 ?
5.40

Please look up its pIC50: N[C@H]1CC[C@H](Nc2c(C(=O)Nc3ccccc3)nc(Br)c3cccnc23)CC1
6.00

Report pIC50 for O=C(NCc1ccc(F)cc1)c1nc(N2CCCCS2(=O)=O)c2cccnc2c1O please.
5.22

// returns reported pIC50 for input NCCCNc1c(C(=O)NCc2ccc(F)cc2)nc(Br)c2cccnc12
5.30

I am curious: what pIC50 value has been reported for CNCCCNc1c(C(=O)NCc2ccc(F)cc2)nc(Br)c2cccnc12 ?
4.96

I am curious: what pIC50 value has been reported for N[C@H]1CC[C@H](Nc2c(C(=O)NCc3cccc(C(F)(F)F)c3)nc(Br)c3cccnc23)CC1 ?
5.38
